B1: HDV Ribozyme (parent)
chain: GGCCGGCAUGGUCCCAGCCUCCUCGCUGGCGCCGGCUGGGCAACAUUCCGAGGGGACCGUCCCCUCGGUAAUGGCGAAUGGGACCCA

# Variants of: B1
# experimentalProtocol: self-cleavage, relative activity (ratio to wild type); higher = more cleavage; co-transcriptional
recordedEndpoint: self-cleavage
// no unit string in output, number only

sequenceVariant: G31C C62G
self-cleavage: 0.166

sequenceVariant: C63A G68C
self-cleavage: 0.495

sequenceVariant: A16G G17C
self-cleavage: 0.214

Noted for C41G G67A : its self-cleavage reads 0.456

Noted for C4G C22G : its self-cleavage reads 0

Noted for U47A G81A : its self-cleavage reads 0.341

Noted for G10A A43G : its self-cleavage reads 0.217

Noted for G1U C32U : its self-cleavage reads 0.532

Noted for C13G G31U : its self-cleavage reads 0.0405

Noted for G55C A56C : its self-cleavage reads 0.969

Noted for C3U C84U : its self-cleavage reads 0.808
